Attribution: patent US8946226B2

measurement_description: Levels of compound in brain and plasma by LC/MS/MS
Type: in vivo, Han Wistar rats
setup_conditions: Han Wistar, plasma; rat, oral 60 mg/kg for 6 consecutive days, day 6, 2 hours post-dosing
quantity_measured: concentration at 2 h (µM)
Respond with the bare value in µM.

Consider the compound CNC(=O)c1nn(C)c2c1C(C)(C)Cc1cnc(Nc3ccc(N4CCN(C)CC4)cc3)nc1-2 [compound of formula (I)] . State its measured concentration at 2 h.
9.8

---

measurement_description: Levels of compound in brain and plasma by LC/MS/MS
Assay type: in vivo, Han Wistar rats
setup_conditions: Han Wistar, plasma; rat, oral 60 mg/kg for 6 consecutive days, day 6, 6 hours post-dosing
quantity_measured: concentration at 6 h (µM)
Respond with the bare value in µM.

Tell me concentration at 6 h reported for CNC(=O)c1nn(C)c2c1C(C)(C)Cc1cnc(Nc3ccc(N4CCN(C)CC4)cc3)nc1-2 [compound of formula (I)]
8.4

---

measurement_description: Levels of compound in brain and plasma by LC/MS/MS
Type: in vivo, Han Wistar rats
setup_conditions: Han Wistar, brain/plasma; rat, oral 60 mg/kg for 6 days; assuming a density equal to 1; read-out: brain levels times higher than plasma levels
quantity_measured: Kp

Check the records and state Kp for CNC(=O)c1nn(C)c2c1C(C)(C)Cc1cnc(Nc3ccc(N4CCN(C)CC4)cc3)nc1-2
6.1 to 9.6

---

Tested on: SF539
measurement_description: Inhibition of cell proliferation (cellular ATP monitoring)
Assay type: cell-based
setup_conditions: Homo sapiens, SF-539; SF539, 72 hours
quantity_measured: pIC50
Expect pIC50 as a plain number equal to -log10 of the molar concentration.

Check the records and state pIC50 for CNC(=O)c1nn(C)c2c1C(C)(C)Cc1cnc(Nc3ccc(N4CCN(C)CC4)cc3)nc1-2
5.85

---

System: U251
measurement_description: Inhibition of cell proliferation (cellular ATP monitoring)
Format: cell-based
setup_conditions: Homo sapiens, U-251; U251, 72 hours
quantity_measured: pIC50
Reminder that pIC50 means the negative base-10 logarithm of the concentration expressed in mol/L.

Look up and report measured pIC50 (U251) for the following molecule: CNC(=O)c1nn(C)c2c1C(C)(C)Cc1cnc(Nc3ccc(N4CCN(C)CC4)cc3)nc1-2
5.55
